Data credit: the supplement of paper PMC7125110

B1: glmS ribozyme (parent)
chain: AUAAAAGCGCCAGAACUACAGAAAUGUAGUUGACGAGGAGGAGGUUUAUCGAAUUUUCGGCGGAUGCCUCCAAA

# Variants of: B1
# TEST_DETAILS: self-cleavage kobs at 160 uM GlcN6P; higher = faster cleavage; RNA array
# MEASUREMENT_PARAMETERS: with glucosamine-6-phosphate
Variants at the floor of the assay were thinned out.
PARAMETER: self-cleavage kobs at 160 uM GlcN6P

MUTANT_LABEL: G9A A36C G41U A64G C70U
RESULT: < 1e-05 s⁻¹

MUTANT_LABEL: A48C C58G C71A
RESULT: < 1e-05 s⁻¹

MUTANT_LABEL: A12U G41U C61U
RESULT: < 1e-05 s⁻¹

MUTANT_LABEL: A15U G59U
RESULT: < 1e-05 s⁻¹

MUTANT_LABEL: C16A A33U
RESULT: < 1e-05 s⁻¹

MUTANT_LABEL: U45A
RESULT: 0.00532 s⁻¹

MUTANT_LABEL: G13U U47G A52C
RESULT: < 1e-05 s⁻¹

MUTANT_LABEL: A33U U65G
RESULT: < 1e-05 s⁻¹

MUTANT_LABEL: U30G C58G A64C C67G C71G
RESULT: 5.89e-05 s⁻¹

MUTANT_LABEL: C16U A64G U65A C70U
RESULT: 8.56e-05 s⁻¹

MUTANT_LABEL: G7A G41U
RESULT: < 1e-05 s⁻¹

MUTANT_LABEL: G38A A53C
RESULT: < 1e-05 s⁻¹

MUTANT_LABEL: A14U A53G
RESULT: 0.000311 s⁻¹

MUTANT_LABEL: G29U G43C U47A G63A
RESULT: < 1e-05 s⁻¹

MUTANT_LABEL: G21U
RESULT: 0.00351 s⁻¹

MUTANT_LABEL: G35U G40U
RESULT: < 1e-05 s⁻¹

MUTANT_LABEL: G60U C68G
RESULT: < 1e-05 s⁻¹

MUTANT_LABEL: A14U G41U G44U
RESULT: < 1e-05 s⁻¹

MUTANT_LABEL: G41U C61A
RESULT: < 1e-05 s⁻¹

MUTANT_LABEL: A14U G35U
RESULT: < 1e-05 s⁻¹

MUTANT_LABEL: G59A G62U
RESULT: < 1e-05 s⁻¹

MUTANT_LABEL: G7U U45C
RESULT: < 1e-05 s⁻¹

MUTANT_LABEL: G32C C34A C67G C70A
RESULT: < 1e-05 s⁻¹

MUTANT_LABEL: A14C C34A A48C C61G
RESULT: < 1e-05 s⁻¹

MUTANT_LABEL: A6C G41U C68U C70A
RESULT: < 1e-05 s⁻¹

MUTANT_LABEL: C16U U56A
RESULT: 0.000861 s⁻¹

MUTANT_LABEL: G7U A14G
RESULT: < 1e-05 s⁻¹

MUTANT_LABEL: A53U U55C
RESULT: 0.00118 s⁻¹

MUTANT_LABEL: A14G A39G
RESULT: 0.00304 s⁻¹

MUTANT_LABEL: U30A A39C U55C
RESULT: 4.87e-05 s⁻¹

MUTANT_LABEL: G44C U46G
RESULT: < 1e-05 s⁻¹

MUTANT_LABEL: G7U C8G A12U U49G
RESULT: < 1e-05 s⁻¹

MUTANT_LABEL: G32U A64G
RESULT: 4.19e-05 s⁻¹
